Molecular target: T1, Abp1, P15891
T1 sequence (P15891 535-592, looked up): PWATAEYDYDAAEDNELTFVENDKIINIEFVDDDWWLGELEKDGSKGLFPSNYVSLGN
Assay: SPOT array
Settings: median of control spots 935

{"binder": "GQYRRTIVIPRRFFT", "SPOT intensity": 184}
{"binder": "RRASLFPRDPKRLRP", "SPOT intensity": 95}
{"binder": "LLGRKRPVMERVVDI", "SPOT intensity": 28}
{"binder": "KRKRRLPVSEDTNTK", "SPOT intensity": 78}

Reference source for all entries: paper PMC2756588
